Molecular target: Jun bZIP K273A;Fos bZIP R158A (human;human, UniProt P05412;P01100 252-315;137-200, K273A|R158A)
Sequence (P05412 252-315 K273A, chain 1 of 2): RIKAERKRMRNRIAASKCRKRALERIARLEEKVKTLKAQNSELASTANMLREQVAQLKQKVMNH
Sequence (P01100 137-200 R158A, chain 2 of 2): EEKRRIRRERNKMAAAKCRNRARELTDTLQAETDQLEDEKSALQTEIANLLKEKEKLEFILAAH
Assay: ITC
endpoint: pKd
Please treat pKd as minus the base-10 logarithm of the molar concentration.

Query: Could you please provide reported pKd for TRE duplex 15-mer (dsDNA) DNA 1: CGCGTGACTCACCCC DNA 2: GGGGTGAGTCACGCG ? Thanks!
Reply: 6.17
